Please go through the items and note down their pIC50.
# Experimental target: GTPase KRas (Homo sapiens, UniProt P01116, G12D)
# Experimental protocol: Inhibition of bodipy-loaded KRAS G12D mutant (unknown origin) assessed as GDP-GTP exchange preincubated for 4 hrs followed by GppNHp and SOS1 addition and measured after 2 hrs by fluorescence based plate reader analysis
Give bare numbers, as −log10 of the molar value.

Examples from the recorded data:
{"Compound": "Cc1cc2c(nc(N3CC(N(C)C)C3)c3nc(CCC(=O)N(C)C)n([C@H]4[C@H]5CN[C@@H]4C5)c32)c(F)c1-c1cc(O)cc2ccccc12", "Quantity measured": "pIC50", "Observed": 7.92}
{"Compound": "CN(C)C1CN(c2nc(N3CCNCC3)c3cc(Cl)c(-c4cc(O)cc5ccccc45)c(F)c3n2)C1", "Quantity measured": "pIC50", "Observed": 5.10}
{"Compound": "CC(Oc1nc2c(F)c(-c3cc(O)cc4ccccc34)c(CCC#N)cc2c2c1cc(CCC(=O)N(C)C)n2[C@H]1[C@H]2CN[C@@H]1C2)C1CCCN1C (single isomer, unassigned)", "Quantity measured": "pIC50", "Observed": 8.44}
{"Compound": "Cc1cc(-c2nc3c(F)c(-c4cccc5ccc(F)cc45)c(CCC#N)cc3c3c2cc([C@@H](C)N2CCOCC2=O)n3[C@H]2[C@H]3CN[C@@H]2C3)ccn1", "Quantity measured": "pIC50", "Observed": 8.68}
{"Compound": "CN(C)C1CN(c2nc3c(F)c(-c4cc(O)cc5ccccc45)c(Cl)cc3c3c2ncn3[C@H]2[C@H]3CN[C@@H]2C3)C1", "Quantity measured": "pIC50", "Observed": 6.17}

Hey, quick one: what's pIC50 for each of these?
1. Cc1cc(-c2nc3c(F)c(-c4cccc5ccc(F)cc45)c(CCC#N)cc3c3c2cc(CN2CCOCC2=O)n3[C@H]2[C@H]3CN[C@@H]2C3)ccn1
2. N#CCCc1cc2c(nc(-n3cncn3)c3cc(CN4CCOCC4=O)n([C@H]4[C@H]5CN[C@@H]4C5)c32)c(F)c1-c1cccc2ccc(F)cc12
3. CCOc1nc2c(F)c(-c3cc(O)cc4ccccc34)c(CCC#N)cc2c2c1cc(CN1CCCCC1=O)n2[C@H]1[C@H]2CN[C@@H]1C2

Found:
[8.16, 8.43, 8.59]

Hey, quick one: what's pIC50 for each of these?
1. CC(Oc1nc2c(F)c(-c3cc(O)cc4ccccc34)c(CCC#N)cc2c2c1nc(CCC(=O)N(C)C)n2[C@H]1[C@H]2CN[C@@H]1C2)C1CCCN1C (single isomer, unassigned)
2. CCOc1nc2c(F)c(-c3cccc4ccc(F)cc34)c(CCC#N)cc2c2c1cc(CCC(=O)N(C)C)n2[C@H]1[C@H]2CN[C@@H]1C2
3. Cc1nc2c(F)c(-c3cc(O)cc4ccccc34)c(CCC#N)cc2c2c1cc(CN1CCCCC1=O)n2[C@H]1[C@H]2CN[C@@H]1C2
4. Cc1nc2c(F)c(-c3cccc4ccc(F)cc34)c(CCC#N)cc2c2c1cc(CN1CCCCC1=O)n2[C@H]1[C@H]2CN[C@@H]1C2
5. N#CCCc1cc2c(nc(-c3ccncn3)c3cc(CN4CCOCC4=O)n([C@H]4[C@H]5CN[C@@H]4C5)c32)c(F)c1-c1cccc2ccc(F)cc12
6. CN(C)C(=O)CCc1cc2c(N3CC(C)(N(C)C)C3)nc3c(F)c(-c4cc(O)cc5ccccc45)c(CCC#N)cc3c2n1[C@H]1[C@H]2CN[C@@H]1C2

Found:
[7.82, 6.41, 8.46, 8.21, 8.42, 8.52]
